Tested on: T1, huROR1-His (human ROR1 ECD AA30-406 with C-terminal His tag, made in house) (human, UniProt Q01973 30-406)
T1 construct: range 30-406; Expressed in HEK293; also called antigen protein huROR1-His; not shown: C-terminal His tag
T1 sequence (Q01973 30-406 limits assumed): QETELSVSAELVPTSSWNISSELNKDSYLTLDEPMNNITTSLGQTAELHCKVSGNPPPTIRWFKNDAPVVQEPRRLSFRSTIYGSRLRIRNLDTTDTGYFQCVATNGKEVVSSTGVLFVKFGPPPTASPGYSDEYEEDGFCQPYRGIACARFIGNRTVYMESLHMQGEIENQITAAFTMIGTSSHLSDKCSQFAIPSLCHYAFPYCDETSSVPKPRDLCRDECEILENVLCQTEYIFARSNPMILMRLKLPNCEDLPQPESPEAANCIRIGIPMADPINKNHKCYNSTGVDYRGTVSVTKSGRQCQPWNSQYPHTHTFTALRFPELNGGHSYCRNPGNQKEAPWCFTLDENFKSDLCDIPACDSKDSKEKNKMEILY
Assay: ELISA, huROR1-His coated at 2 µg/mL, goat anti-human Fc-HRP, OD450
We begin with a simple list: items and their reported EC50.
Use ng/mL as the unit, but write only the number.

Some solved entries appear below for comparison.
B32 (chimeric antibody) (antibody, human IgG1, kappa, V domains shown, ExpiCHO expression) VH: EVKLMESGGGLVKPGGSLKLSCAASGFAFSSYAMSWVRQTPDKRLEWVASINRDVTTYYPDSMKGRFTISRDNARNILYLQMSSLRSEDTAMYYCARGYYYGGGPYWHFDVWGAGTTVTVSS VL: DIQITQSPSSMYASLGERVTITCKASQDINSYLTWFQQKPGKSPKTLIYRANRLVDGVPSRFSGSGSGQDYSLTISSLEYEDMGIYYCLQFDEFPYTFGGGTKLEIKR; 5.75
C38 (chimeric antibody) (antibody, human IgG1, kappa, V domains shown, ExpiCHO expression) VH: EVMLVESGGGLVRPGGSLKLSCAASGFTFSSYAMSWVRQTPDKRLEWVASINRDVTTYYPDSVKGRFTISRDNARNILYLQMSSLRSEDTAMYYCARDYYYGSSLYYGMDYWGQGTSVTVSS VL: DIQMTQSPSSMHASLGERVTITCKASQDINNYVSWFQQKPGKSPKTLIYRANRLVDGVPSRFSGSGSGQDYSFTISSLEYEDMGIYYCLQFDEFPYTFGGGTKLEIKR; 3.71
B62 (chimeric antibody) (antibody, human IgG1, kappa, V domains shown, ExpiCHO expression) VH: DVKLVESGGGLVQPGGSLKLSCAASGFTFSSYVMSWVRQTPDKRLELVATINSNGGNTYYPDSVKGRFTISRDNAKNTLYLQMSSLKSEDTAMYYCARDSLGLRRRDYAMDYWGQGTSVTVSS VL: DIVLTQSPASLSMAIGEKVTIRCVTSIDIDDDVNWYQQKPGKPPKLLISAGNTLRPGVPSRFSSSGYGTDFVFTIENMLSEDVADYYCLQSDNLPYTFGGGTKLEIKR; 8.03

Please report the measured EC50 for M71 (chimeric antibody) (antibody, human IgG1, kappa, V domains shown, ExpiCHO expression) VH: EVMLVESGGGLVKPGGSLKLSCAASGFTFSRYAMSWVRQTPEKRLEWVASINRGGTTYYPDSVKGRFTISRDNARDILYLQMSSLRSEDTAIYYCARDYYYGSSLYNGMDFWGQGTSVIVSS VL: DIQMTQSPSSMYASLGERVTITCKASQDINSYLSWFQQKPGKSPKTLIYRANRLVDGVPSRFSGSGSGQDYSLTISSLESEDMGIYYCLQFDEFPYTFGGGTKLEIKR 7.7

Please report the measured EC50 for B74 (chimeric antibody) (antibody, human IgG1, kappa, V domains shown, ExpiCHO expression) VH: EVMLVESGGNLVKPGGSLKLSCAASGFTFSIYAMSWVRQTPEKRLEWVASISGGGTAYYPDSVKGRFTISRDNARNILYLQMSSLRSEDTAIYYCARGYYYGGSPYWHFDVWGAGTTVTVSS VL: DIKMTQSPSSMYASLGERVTITCKASQDINSYLSWFQQKPGKSPKTLIYRANRLVDGVPSRFSGSGSGQDYSLTISSLEYEDIGIYYCLQIDEFPYTFGGGTKLEIKR 5.13
